System: Pseudomonas 1 (Pseudomonas baetica)
experiment: relative growth (AUC of 72 h growth curve relative to DMSO control, dAUC) (ratio); higher = more growth (less inhibition), active = hit call of the paper
condition-details: 20 µM
measurement-type: relative growth

INSERT INTO assay_data (compound, measurement_type, value_reported) VALUES
  ('COc1cccc(C(=O)NN(C(=O)c2cc(C)cc(C)c2)C(C)(C)C)c1C', 'relative growth', 1.04),
  ('COP(=S)(OC)SCN1C(=O)c2ccccc2C1=O', 'relative growth', 0.986),
  ('CC(Oc1ccc(Oc2ncc(C(F)(F)F)cc2Cl)cc1)C(=O)O (configuration not stated)', 'relative growth', 1.1),
  ('CN/C(=N\[N+](=O)[O-])NCc1cnc(Cl)s1', 'relative growth', 1.1),
  ('CCC(C)(C)C(=O)OC1=C(c2ccc(Cl)cc2Cl)C(=O)OC12CCCCC2', 'relative growth', 1.07),
  ('CCOCn1c(-c2ccc(Cl)cc2)c(C#N)c(Br)c1C(F)(F)F', 'relative growth', 1.05),
  ('O=C(NCCc1ncc(C(F)(F)F)cc1Cl)c1ccccc1C(F)(F)F', 'relative growth', 1.08);

---

System: Flavobacterium 1 (Flavobacterium glaciei)
experiment: relative growth (AUC of 72 h growth curve relative to DMSO control, dAUC) (ratio); higher = more growth (less inhibition), active = hit call of the paper
condition-details: 20 µM
measurement-type: relative growth

INSERT INTO results (compound_structure, value_reported) VALUES
  ('CSc1nc(NC(C)C)nc(NC(C)C)n1', 1.02),
  ('CC(C)OC(=O)C(C(=O)OC(C)C)=C1SCCS1', 0.993),
  ('Cc1cc(C)nc(Nc2ccccc2)n1', 1.01),
  ('N#Cc1cc(Br)c(O)c(Br)c1', 1.02),
  ('O=[N+]([O-])/N=C1\NCCN1Cc1ccc(Cl)nc1', 0.997),
  ('CCc1nn(C)c(C(=O)NCc2ccc(Oc3ccc(C)cc3)cc2)c1Cl', 1),
  ('COP(=O)(OC)OC=C(Cl)Cl', 1.01),
  ('CCCN(CCC)C(=O)SCc1ccccc1', 0.979),
  ('CN1COCN(Cc2cnc(Cl)s2)/C1=N\[N+](=O)[O-]', 1.02);

---

System: Oryzobacter 1 (Oryzobacter terrae)
experiment: relative growth (AUC of 72 h growth curve relative to DMSO control, dAUC) (ratio); higher = more growth (less inhibition), active = hit call of the paper
condition-details: 20 µM
measurement-type: relative growth

INSERT INTO assay_data (compound, measurement_target, measurement_type, value_reported) VALUES
  ('CCc1nn(C)c(C(=O)NCc2ccc(Oc3ccc(C)cc3)cc2)c1Cl', 'Oryzobacter 1 (Oryzobacter terrae)', 'relative growth', 0.988),
  ('CCCC(Cn1cncn1)c1ccc(Cl)cc1Cl (centres undefined)', 'Oryzobacter 1 (Oryzobacter terrae)', 'relative growth', 1.05),
  ('CNC(=O)Oc1cccc2ccccc12', 'Oryzobacter 1 (Oryzobacter terrae)', 'relative growth', 0.972),
  ('COCC(=O)N(c1c(C)cccc1C)C(C)C(=O)OC (centres undefined)', 'Oryzobacter 1 (Oryzobacter terrae)', 'relative growth', 1.01);

---

Tested on: Pseudomonas 2 (Pseudomonas vancouverensis)
experiment: relative growth (AUC of 72 h growth curve relative to DMSO control, dAUC) (ratio); higher = more growth (less inhibition), active = hit call of the paper
condition-details: 20 µM
measurement-type: relative growth

INSERT INTO results (compound, measurement_type, value_reported) VALUES
  ('N#Cc1cc(Br)c(O)c(Br)c1', 'relative growth', 1.02),
  ('CNC(=O)ON=C(C)SC', 'relative growth', 0.956),
  ('CC(C1CC1)C(O)(Cn1cncn1)c1ccc(Cl)cc1 (centres undefined)', 'relative growth', 0.955),
  ('CN/C(=N\[N+](=O)[O-])NCc1cnc(Cl)s1', 'relative growth', 0.964),
  ('O=C(NC(=O)c1c(F)cccc1F)Nc1ccc(OC(F)(F)C(F)OC(F)(F)F)c(Cl)c1 (centres undefined)', 'relative growth', 1.01),
  ('COC(=O)c1ccccc1S(=O)(=O)NC(=O)Nc1nc(C)nc(OC)n1', 'relative growth', 1.01),
  ('CCC(=O)Nc1ccc(Cl)c(Cl)c1', 'relative growth', 0.975),
  ('OC(Cn1cncn1)(c1ccc(F)cc1)c1ccccc1F (centres undefined)', 'relative growth', 0.999),
  ('O=C(Nc1ccccc1-c1ccc(Cl)cc1)c1cccnc1Cl', 'relative growth', 0.972),
  ('Cc1cc(C)c(C2=C(OC(=O)CC(C)(C)C)C3(CCCC3)OC2=O)c(C)c1', 'relative growth', 1.12),
  ('Cc1nnc(-c2ccccc2)c(=O)n1N', 'relative growth', 0.997),
  ('CCCCC(C#N)(Cn1cncn1)c1ccc(Cl)cc1 (centres undefined)', 'relative growth', 0.943),
  ('CC1COC(Cn2cncn2)(c2ccc(Oc3ccc(Cl)cc3)cc2Cl)O1 (centres undefined)', 'relative growth', 0.99),
  ('CO/C=C(/C(=O)OC)c1ccccc1Oc1cc(Oc2ccccc2C#N)ncn1', 'relative growth', 1.02),
  ('COc1cc(C)c(C(=O)c2c(OC)ccc(Br)c2C)c(OC)c1OC', 'relative growth', 1.01),
  ('CCCCOC(=O)[C@H](C)Oc1ccc(Oc2ccc(C#N)cc2F)cc1', 'relative growth', 1.08),
  ('CCCSP(=O)(OCC)Oc1ccc(Br)cc1Cl (centres undefined)', 'relative growth', 1.08),
  ('CN/C(=N/CC1CCOC1)N[N+](=O)[O-] (centres undefined)', 'relative growth', 0.983),
  ('C#CCOc1ccc(CCNC(=O)C(OCC#C)c2ccc(Cl)cc2)cc1OC (centres undefined)', 'relative growth', 0.988),
  ('O=C(NCCc1ncc(C(F)(F)F)cc1Cl)c1ccccc1C(F)(F)F', 'relative growth', 0.981),
  ('CCC(C)(C)C(=O)OC1=C(c2ccc(Cl)cc2Cl)C(=O)OC12CCCCC2', 'relative growth', 0.983),
  ('COc1ccc(-c2ccccc2)cc1NNC(=O)OC(C)C', 'relative growth', 0.964),
  ('CNC(=O)Oc1cccc(/N=C/N(C)C)c1', 'relative growth', 0.989),
  ('C#CCN1C(=O)COc2cc(F)c(N3C(=O)C4=C(CCCC4)C3=O)cc21', 'relative growth', 1),
  ('CC(C)N1C(=O)c2ccccc2NS1(=O)=O', 'relative growth', 1.03),
  ('CCOc1cc(Oc2ccc(C(F)(F)F)cc2Cl)ccc1[N+](=O)[O-]', 'relative growth', 0.992),
  ('ClC1C(Cl)C(Cl)C(Cl)C(Cl)C1Cl (centres undefined)', 'relative growth', 0.993),
  ('CCC(CC)Nc1c([N+](=O)[O-])cc(C)c(C)c1[N+](=O)[O-]', 'relative growth', 0.981),
  ('CNC(=O)c1cc(C#N)cc(C)c1NC(=O)c1cc(Br)nn1-c1ncccc1Cl', 'relative growth', 0.986);

---

System: Community 6
experiment: relative growth (AUC of 72 h growth curve relative to DMSO control, dAUC) (ratio); higher = more growth (less inhibition), active = hit call of the paper
condition-details: 20 µM
measurement-type: relative growth

INSERT INTO assay_data (compound_structure, measurement_target, measurement_type, value_reported) VALUES
  ('Cc1cc(C(F)(C(F)(F)F)C(F)(F)F)ccc1NC(=O)c1cccc(I)c1C(=O)NC(C)(C)CS(C)(=O)=O', 'Community 6', 'relative growth', 0.894),
  ('COc1ccc(-c2ccccc2)cc1NNC(=O)OC(C)C', 'Community 6', 'relative growth', 0.886),
  ('CN1COCN(Cc2cnc(Cl)s2)/C1=N\[N+](=O)[O-]', 'Community 6', 'relative growth', 0.963);

---

System: Carnobacterium 1 (Carnobacterium gallinarum)
experiment: relative growth (AUC of 72 h growth curve relative to DMSO control, dAUC) (ratio); higher = more growth (less inhibition), active = hit call of the paper
condition-details: 20 µM
Measured relative growth, listed per entry for reference.
measurement-type: relative growth

INSERT INTO results (compound_structure, measurement_type, value_reported) VALUES
  ('CCOCN(C(=O)CCl)c1c(C)cccc1CC', 'relative growth', 1),
  ('COC(=O)c1ccccc1S(=O)(=O)NC(=O)Nc1nc(C)nc(OC)n1', 'relative growth', 1.2),
  ('CCCN(CCC)C(=O)SCc1ccccc1', 'relative growth', 1.04);

---

Tested on: Pseudomonas 6 (Pseudomonas sp.)
experiment: relative growth (AUC of 72 h growth curve relative to DMSO control, dAUC) (ratio); higher = more growth (less inhibition), active = hit call of the paper
condition-details: 20 µM
# reported relative growth; entries follow
measurement-type: relative growth

INSERT INTO measurements (compound, measurement_target, value_reported) VALUES
  ('CCOC(=O)OC1=C(c2cc(C)ccc2C)C(=O)N[C@]12CC[C@@H](OC)CC2', 'Pseudomonas 6 (Pseudomonas sp.)', '1.09 (inactive)'),
  ('Nc1c(Cl)c(F)nc(OCC(=O)O)c1Cl', 'Pseudomonas 6 (Pseudomonas sp.)', '0.889 (inactive)'),
  ('CCN(CC)c1nc(C)cc(OP(=S)(OC)OC)n1', 'Pseudomonas 6 (Pseudomonas sp.)', '1.03 (inactive)'),
  ('CC(C1CC1)C(O)(Cn1cncn1)c1ccc(Cl)cc1 (stereo not given)', 'Pseudomonas 6 (Pseudomonas sp.)', '1.03 (inactive)'),
  ('C/C(=N\C#N)N(C)Cc1ccc(Cl)nc1', 'Pseudomonas 6 (Pseudomonas sp.)', '0.981 (inactive)'),
  ('C#CCOc1ccc(CCNC(=O)C(OCC#C)c2ccc(Cl)cc2)cc1OC (stereo not given)', 'Pseudomonas 6 (Pseudomonas sp.)', '1.07 (inactive)'),
  ('CCCC(Cn1cncn1)c1ccc(Cl)cc1Cl (stereo not given)', 'Pseudomonas 6 (Pseudomonas sp.)', '0.993 (inactive)'),
  ('N#Cc1nn(-c2c(Cl)cc(C(F)(F)F)cc2Cl)c(N)c1[S+]([O-])C(F)(F)F (stereo not given)', 'Pseudomonas 6 (Pseudomonas sp.)', '0.962 (inactive)'),
  ('CS(=O)(=O)NC(=O)c1cc(Oc2ccc(C(F)(F)F)cc2Cl)ccc1[N+](=O)[O-]', 'Pseudomonas 6 (Pseudomonas sp.)', '1.07 (inactive)'),
  ('Cc1cc(C(C#N)c2ccc(Cl)cc2)c(Cl)cc1NC(=O)c1cc(I)cc(I)c1O (stereo not given)', 'Pseudomonas 6 (Pseudomonas sp.)', '0.857 (inactive)'),
  ('O=C(NC(=O)c1c(F)cccc1F)Nc1ccc(Cl)cc1', 'Pseudomonas 6 (Pseudomonas sp.)', '1.05 (inactive)'),
  ('CC(C)N(C(=O)COc1nnc(C(F)(F)F)s1)c1ccc(F)cc1', 'Pseudomonas 6 (Pseudomonas sp.)', '1.1 (inactive)'),
  ('CC(Oc1ccc(Oc2ncc(C(F)(F)F)cc2Cl)cc1)C(=O)O (stereo not given)', 'Pseudomonas 6 (Pseudomonas sp.)', '1.17 (inactive)'),
  ('CCOc1ccc(C(C)(C)COCc2cccc(Oc3ccccc3)c2)cc1', 'Pseudomonas 6 (Pseudomonas sp.)', '1.02 (inactive)'),
  ('CCCC1COC(Cn2cncn2)(c2ccc(Cl)cc2Cl)O1 (stereo not given)', 'Pseudomonas 6 (Pseudomonas sp.)', '1.02 (inactive)'),
  ('COP(=S)(OC)Oc1nc(Cl)c(Cl)cc1Cl', 'Pseudomonas 6 (Pseudomonas sp.)', '1.12 (inactive)'),
  ('CC(C)N(C)S(=O)(=O)NC(=O)c1cc(-n2c(=O)cc(C(F)(F)F)n(C)c2=O)c(F)cc1Cl', 'Pseudomonas 6 (Pseudomonas sp.)', '1.07 (inactive)'),
  ('N#Cc1c(Cl)c(Cl)c(Cl)c(C#N)c1Cl', 'Pseudomonas 6 (Pseudomonas sp.)', '1.1 (inactive)'),
  ('Cc1nc(N(C)C)nc(OC(=O)N(C)C)c1C', 'Pseudomonas 6 (Pseudomonas sp.)', '1.02 (inactive)'),
  ('CON(C)C(=O)Nc1ccc(Cl)c(Cl)c1', 'Pseudomonas 6 (Pseudomonas sp.)', '1.02 (inactive)'),
  ('Fc1ccc([C@]2(Cn3cncn3)O[C@H]2c2ccccc2Cl)cc1 (racemic)', 'Pseudomonas 6 (Pseudomonas sp.)', '1.07 (inactive)'),
  ('CCCN(CCOc1c(Cl)cc(Cl)cc1Cl)C(=O)n1ccnc1', 'Pseudomonas 6 (Pseudomonas sp.)', '1.03 (inactive)'),
  ('Cc1ccc(/N=C/N(C)/C=N/c2ccc(C)cc2C)c(C)c1', 'Pseudomonas 6 (Pseudomonas sp.)', '1.11 (inactive)'),
  ('CS(=O)(=O)c1ccc(C(=O)C2C(=O)CCCC2=O)c([N+](=O)[O-])c1', 'Pseudomonas 6 (Pseudomonas sp.)', '0.96 (inactive)'),
  ('O=C1c2ccccc2C(=O)N1SC(Cl)(Cl)Cl', 'Pseudomonas 6 (Pseudomonas sp.)', '1.16 (inactive)');
